Measured IC50 by item
Molecular target: T1, recombinant human VEGF165 (human, UniProt P15692-4 27-191, biotinylated in the competition assays)
T1 construct: Bought protein; also called hVEGF165; rhVEGF165
T1 sequence (P15692 other isoform, or with tags, fused parts or gaps): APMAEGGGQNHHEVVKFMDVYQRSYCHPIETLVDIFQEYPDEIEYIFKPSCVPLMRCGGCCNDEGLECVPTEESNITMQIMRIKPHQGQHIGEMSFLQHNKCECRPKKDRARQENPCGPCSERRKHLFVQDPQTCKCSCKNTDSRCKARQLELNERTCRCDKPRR
Assay: AlphaScreen, hVEGF165/hVEGFR2-Fc competition
The figure you give is taken to be in pM; do not add the unit.

Completed entries (count: 5):
{"binder": "VEGFBII022 (VHH, not shown: small tags and cut ends, Bivalent (heterodimeric) anti-VEGF VHH; also called VEGFBII23B04-9GS-5B05) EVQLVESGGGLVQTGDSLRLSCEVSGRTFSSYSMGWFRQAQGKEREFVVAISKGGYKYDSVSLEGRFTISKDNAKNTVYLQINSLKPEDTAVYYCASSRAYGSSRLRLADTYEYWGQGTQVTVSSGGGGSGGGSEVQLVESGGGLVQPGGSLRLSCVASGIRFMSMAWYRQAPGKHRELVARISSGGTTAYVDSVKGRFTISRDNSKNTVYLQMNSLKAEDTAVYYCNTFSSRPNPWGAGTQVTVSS", "test-value": 7}
{"binder": "VEGFBII021 (VHH, not shown: small tags and cut ends, Bivalent (heterodimeric) anti-VEGF VHH; also called VEGFBII23B04-40GS-5B05) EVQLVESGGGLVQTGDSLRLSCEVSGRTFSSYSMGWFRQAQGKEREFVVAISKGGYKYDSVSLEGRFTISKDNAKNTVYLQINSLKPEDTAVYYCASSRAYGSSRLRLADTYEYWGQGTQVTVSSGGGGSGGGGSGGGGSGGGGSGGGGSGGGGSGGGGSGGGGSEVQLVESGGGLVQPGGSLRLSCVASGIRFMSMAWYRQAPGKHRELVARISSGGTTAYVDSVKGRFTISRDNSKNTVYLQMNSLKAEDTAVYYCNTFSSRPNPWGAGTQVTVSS", "test-value": 7}
{"binder": "VEGFBII025 (VHH, not shown: small tags and cut ends, Bivalent anti-VEGF VHH; also called VEGFBII10E07-40GS-23B04) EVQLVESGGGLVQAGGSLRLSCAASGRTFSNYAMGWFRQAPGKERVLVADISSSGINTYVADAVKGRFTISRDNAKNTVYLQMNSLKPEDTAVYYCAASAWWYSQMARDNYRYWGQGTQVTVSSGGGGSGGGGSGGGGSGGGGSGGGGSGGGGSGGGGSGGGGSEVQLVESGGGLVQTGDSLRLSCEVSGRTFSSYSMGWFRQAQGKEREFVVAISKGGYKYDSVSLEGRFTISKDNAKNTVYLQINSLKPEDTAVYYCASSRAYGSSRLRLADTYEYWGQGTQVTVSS", "test-value": 51}
{"binder": "VEGFBII023 (VHH, not shown: small tags and cut ends, Bivalent anti-VEGF VHH; also called VEGFBII23B04-40GS-10E07) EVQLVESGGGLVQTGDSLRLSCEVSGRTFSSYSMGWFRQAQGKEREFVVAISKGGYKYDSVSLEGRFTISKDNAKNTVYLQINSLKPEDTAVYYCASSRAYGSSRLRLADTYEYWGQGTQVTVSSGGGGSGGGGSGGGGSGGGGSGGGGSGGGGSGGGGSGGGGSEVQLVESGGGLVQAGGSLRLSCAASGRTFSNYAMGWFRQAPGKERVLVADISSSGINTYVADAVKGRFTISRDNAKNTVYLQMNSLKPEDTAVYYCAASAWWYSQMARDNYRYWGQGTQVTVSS", "test-value": 46}
{"binder": "VEGFBII010 (VHH, not shown: small tags and cut ends, Homodimeric bivalent anti-VEGF VHH; also called VEGFBII23B04-35GS-23B04) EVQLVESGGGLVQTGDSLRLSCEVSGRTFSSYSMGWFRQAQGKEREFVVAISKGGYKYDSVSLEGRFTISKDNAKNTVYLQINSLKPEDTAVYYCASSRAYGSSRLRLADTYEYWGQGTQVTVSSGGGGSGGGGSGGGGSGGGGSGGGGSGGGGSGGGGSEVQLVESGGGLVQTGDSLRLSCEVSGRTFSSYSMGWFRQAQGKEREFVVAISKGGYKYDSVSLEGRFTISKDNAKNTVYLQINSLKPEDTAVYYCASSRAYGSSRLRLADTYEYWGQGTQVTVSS", "test-value": 16}

Problem: Look at this binder and give its reported IC50. VEGFBII024 (VHH, not shown: small tags and cut ends, Bivalent anti-VEGF VHH; also called VEGFBII23B04-40GS-86H09) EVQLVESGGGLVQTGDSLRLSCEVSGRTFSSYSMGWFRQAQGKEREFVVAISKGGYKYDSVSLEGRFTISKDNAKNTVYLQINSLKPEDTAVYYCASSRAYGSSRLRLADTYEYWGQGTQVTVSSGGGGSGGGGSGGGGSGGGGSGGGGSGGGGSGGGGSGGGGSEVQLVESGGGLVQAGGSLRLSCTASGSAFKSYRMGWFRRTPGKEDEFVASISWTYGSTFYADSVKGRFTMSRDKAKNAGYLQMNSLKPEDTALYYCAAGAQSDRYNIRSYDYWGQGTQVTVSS
Solution: 50
